The values you see were collected from a melting point compilation (Tetko et al.).

So I've got a bunch of compounds here, and I need their melting point values.
Report the figure in °C without appending any unit label.

### Prompt Provide one value: measured melting point of Cn1nc(-c2cc(OCC(=O)O)c(Cl)cc2F)c(Cl)c1OC(F)F
### Response 126

### Prompt Provide one value: measured melting point of CCCCCCCC(=O)NN
### Response 88

### Prompt Provide one value: measured melting point of COP(=S)(OC)Oc1c(Cl)cc(C)cc1Cl
### Response 79

### Prompt Provide one value: measured melting point of Nc1nc(N)nc(Cl)n1
### Response 320

### Prompt Provide one value: measured melting point of N#Cc1ccc(N)c2ccccc12
### Response 176

### Prompt Provide one value: measured melting point of CCOc1ccc2ccc(=O)oc2c1
### Response 90

### Prompt Provide one value: measured melting point of C=COCC(C)C
### Response -112

### Prompt Provide one value: measured melting point of CC12CCC(C(O)=C(Br)C1=O)C2(C)C (stereo not drawn)
### Response 188

### Prompt Provide one value: measured melting point of O=C1/C(=N/Nc2ccc(Cl)cc2)C(C(F)(F)F)=NN1c1ccccc1
### Response 180

### Prompt Provide one value: measured melting point of OC(CCCN1CCCCC1)(c1ccccc1)c1ccccc1
### Response 104

---

So I've got a bunch of molecules here, and I need their melting point values.

### Prompt Provide one value: measured melting point of CCOC(=O)CNc1cc(NCC(=O)OCC)c(N)cc1N
### Response > 360 °C

### Prompt Provide one value: measured melting point of CC1(C)CC(N)CC(C)(CN)C1 (configuration not stated)
### Response 10 °C

### Prompt Provide one value: measured melting point of ON(Cc1c(F)cccc1Cl)Cc1c(F)cccc1Cl
### Response 169 to 171 °C

### Prompt Provide one value: measured melting point of NC(=NO)c1cccnc1
### Response 130 to 131 °C

### Prompt Provide one value: measured melting point of Cc1cccc(NC(=O)c2cnc(C(C)(C)C)cn2)c1
### Response 95 °C

### Prompt Provide one value: measured melting point of O=C(Nc1ccc([N+](=O)[O-])cc1[N+](=O)[O-])C(C(F)(F)F)C(F)(F)F
### Response 120 to 122 °C

### Prompt Provide one value: measured melting point of COc1ccc(-c2nnc(CCl)o2)cc1
### Response 91 to 95 °C

### Prompt Provide one value: measured melting point of C=CCCCC(=O)O
### Response -37 °C

### Prompt Provide one value: measured melting point of CCCCCCCC(=O)c1ccc(NC(C)=O)cc1
### Response 123 °C

### Prompt Provide one value: measured melting point of Nc1cccnc1N1CCOCC1
### Response 127 to 128 °C

### Prompt Provide one value: measured melting point of Cc1ccc2c(ccc3ccccc32)n1
### Response 76 °C

### Prompt Provide one value: measured melting point of COC(=O)c1c(O)cc(O)cc1O
### Response 177 °C

### Prompt Provide one value: measured melting point of N#CC1(N=NC2(C#N)CCCCC2)CCCCC1
### Response 116 °C

### Prompt Provide one value: measured melting point of O=C1c2ccccc2C(=O)N1CC#CCCl
### Response 118 °C

### Prompt Provide one value: measured melting point of FC(F)(F)c1ccc(-c2nc(CCl)cs2)cc1
### Response 80 to 85 °C

### Prompt Provide one value: measured melting point of N#Cc1ccc(F)cn1
### Response 43 °C

### Prompt Provide one value: measured melting point of OCC(F)(F)C(F)(F)C(F)(F)C(F)(F)C(F)(F)C(F)(F)C(F)(F)C(F)F
### Response 58 to 60 °C

### Prompt Provide one value: measured melting point of O=C(O)c1sccc1-n1cccc1
### Response 166 °C

### Prompt Provide one value: measured melting point of CC(=O)C(=O)Nc1ccccc1
### Response 100 °C

### Prompt Provide one value: measured melting point of CC(Oc1ccc(Oc2ccc(Cl)cc2Cl)cc1)C(=O)O (configuration not stated)
### Response 120 °C

### Prompt Provide one value: measured melting point of COc1ccc2[nH]cnc2c1
### Response 122 °C

### Prompt Provide one value: measured melting point of CSc1nc(N)nc(C23CC4CC(CC(C4)C2)C3)n1
### Response 208 to 210 °C

### Prompt Provide one value: measured melting point of Cn1c(=O)c(C2=NNC(=O)C2=NNc2ccc([N+](=O)[O-])cc2)c(O)c2ccccc21
### Response 300 °C

### Prompt Provide one value: measured melting point of C[Si](C)(C)C1=CC2(CCCCC2)CC1=O
### Response 56 °C

### Prompt Provide one value: measured melting point of Nc1ccc(S(=O)c2ccc(N)cc2)cc1
### Response 175 °C

### Prompt Provide one value: measured melting point of CNC(=S)N(C)C
### Response 126 to 127 °C

### Prompt Provide one value: measured melting point of Nc1ccc(N2CCOCC2)cc1
### Response 130 to 131 °C
